Source of measurements: PubChem BioAssay (NCI)

Tested on: PC-3 prostate
TEST_PROTOCOL: NCI-60 one-dose screen, 48 h
CONDITION_SET: 10 µM unless noted
The panel holds about 83,000 compounds, 20% with a hit somewhere; the sample as a whole holds those more often. The source made the active and inactive calls. How the source made its calls: active means growth percent below 10; inactive means the rest.
Form entry, call: pick from label 1 (active), label 0 (inactive)

As a guide, the following entries are already answered.
# COMPOUND, TESTED_ON, GROUP
records = [
    ("Cc1ccc(Oc2c(/C=N/NC(=O)Cn3c(=O)sc4ccccc43)c(C)nn2-c2ccccc2)cc1", "PC-3 prostate", "label 0"),
    ("Cc1ccc(S(=O)(=O)NCCCNc2nccc(-c3c(-c4cccc(F)c4)nc4occn34)n2)cc1", "PC-3 prostate", "label 0"),
    ("CNC(=O)c1cc(Oc2cccc3nc(NC(=O)Nc4cc(C(F)(F)F)cc(C(F)(F)F)c4)ccc23)ccn1", "PC-3 prostate", "label 0"),
    ("Cn1cc(-c2nnc(-c3cn(C)c4ncccc34)s2)c2ccccc21", "PC-3 prostate", "label 0"),
    ("Clc1ccc(/C=N/Nc2nc3ccccc3s2)c(Cl)c1", "PC-3 prostate", "label 0"),
]

# fetch the recorded call for O=C1NC(=O)C(Cc2ccccc2)(Cc2ccccc2)N1 here
label 0

Hello, I am checking results. What call was entered for O=C(CSc1nc2ccc([N+](=O)[O-])cc2[nH]1)Nc1ccc(F)c(Cl)c1 ?
label 1

How was COc1cc(C)cc2oc3oc(=O)c(-c4nc5ccccc5s4)cc3c(=O)c12 classified in this test?
label 0

I'd appreciate the recorded outcome for CC1Cc2c(ncnc2-n2cnc3ccccc32)N(C)c2ccccc21 (stereo not given) from this test.
label 0

For NC(=S)Cc1ccccc1 , what call appears in the results of this test?
label 0

For CCOC(=O)c1sc2nc(-c3cc(OC)c(OC)c(OC)c3)nc(N3CCOCC3)c2c1C , what call appears in the results of this test?
label 0

Give the logged outcome of this assay for the following compound: Nc1cccc2c1C(=O)c1cccc(NC(=O)c3ccccc3)c1C2=O
label 0

# fetch the recorded call for CC[C@@H]1NC(=O)[C@@H]2CCCCN2C(=O)[C@@H]2CCCN2C(=O)[C@@H](NC(=O)[C@H](Cc2cc(F)cc(F)c2)NC(=O)Nc2ccc(C3CC3)cc2F)[C@H](C)OC(=O)[C@@H]2C[C@@H](C)CN2C1=O here
label 0

Test call for this compound, please: CCNC(=O)N1CCc2c(Cl)c3c(c(OC)c2[C@@H]1[C@H]1OCc2c1ccc(OC)c2OC)OCCO3
label 0

Give the logged outcome of this assay for the following compound: N#C/C(C(=O)c1ccccc1)=C1/C(=O)Nc2ccccc21
label 0

Name the outcome recorded for C=CCc1nc2ccccc2s1 in the assay.
label 0

Check the results log: what was the call for CC(C)(C)c1cc(C(=O)Nc2cc3ccccc3cc2C(=O)NCCN)cc(C(C)(C)C)c1 ?
label 1

Assay result, entry O=C1Nc2ccccc2/C1=C/C(=O)c1ccc(N2CCCC2)cc1 — outcome?
label 0

Hi, do you know how O=C(Oc1ccc(Cl)cc1[N+](=O)[O-])Oc1ccc(Cl)cc1[N+](=O)[O-] came out in this test?
label 0

Please state the recorded outcome for this compound: COc1ccc(NC(=S)NNc2ccc(-c3ccc(OC)c(OC)c3)nn2)cc1
label 0

Any idea what this test logged for C=C(C)[C@@H]1CC[C@]2(c3ncc(C)o3)CC[C@]3(C)[C@H](CC[C@@H]4[C@@](C)(CCC#N)[C@H](C(=C)C)CC[C@]43C)[C@@H]12 ?
label 1

Hi, do you know how Nc1nc(N)c2c(n1)NC(c1ccc(F)cc1)C1CCc3ccccc3C1=N2 (stereo not given) came out in this test?
label 0

Please indicate how the test categorized Cc1cc(N2CCCCCC2)nc(N2CCN(CC(=O)Nc3ccc4c(ccn4Cc4ccccc4)c3)CC2)n1 .
label 0

What did this assay record as the result for CCN(CC)c1ccc2cc(NC(=O)OCCNC(=O)CCNC(=O)[C@H](CC(C)C)NC(=O)C(C)(C)NC(=O)C(C)(C)NC(=O)[C@H](CC(C)C)NC(=O)CCNC(=O)C(C)(C)NC(=O)[C@H](CC(C)C)NC(=O)CCNC(=O)[C@@](C)(CC)NC(=O)[C@H](C)NC(=O)CCNC(=O)C(C)(C)NC(=O)[C@H](C)NC(=O)[C@@H]3CCCN3C(=O)[C@@](C)(CC)NC(=O)[C@H](Cc3ccccc3)NC(=O)C3CCCN3C(=O)C(C)(C)NC(=O)C3CCCN3C(=O)C(C)(C)NC(C)=O)c(=O)oc2c1 (stereo not given in full) ?
label 1

What did the test return for NS(=O)(=O)c1ccc(CCN2C(=O)/C(=C\c3ccccc3)C=C2c2ccc(Cl)cc2)cc1 ?
label 0

Dear all, I need the recorded test outcome for Cc1cc[n+](CCCCCCCCCC[n+]2ccc(C)cc2)cc1 , thank you.
label 0

Which outcome was assigned to CCOC(=O)C1=C(C(=O)c2ccc(Br)cc2)C(c2ccc(Br)cc2)NC(=S)N1 (stereo not given) in this test?
label 0

Please let me know the test result on file for CCOC(=O)C(C(C)=O)c1nc2sc3cc(Cl)c(Cl)cc3n2c(=O)c1C#N (stereo not given) .
label 0

Outcome logged for C[C@H]1[C@H](C)CC[C@]2(COC(=O)CCC(=O)O)CC[C@]3(C)C(=CC[C@@H]4[C@@]5(C)CCCNC(C)(C)[C@@H]5CC[C@]43C)[C@H]12 in this assay:
label 0
